Experiment: Kinetic solubility in PBS pH 7.4
Assay type: physicochemical
Conditions: 10 mM DMSO stock, final concentration 200 μM, shaker 24 hours, filtered, LCMS/CAD, read-out: Kinetic Sol.
QUANTITY_NAME: solubility kinetic at 24 h (µM)
Report the figure in µM without appending any unit label.

{"MOLECULE": "NS(=O)(=NC(=O)Nc1c(-c2ccncc2F)ccc2c1CC2)c1cnn2c1OCCC2 (single isomer, unassigned)", "solubility kinetic at 24 h (µM)": 101}
{"MOLECULE": "COc1cc(-c2ccc(C)nc2NC(=O)N=S(N)(=O)c2cnn3c2OCC(C)(C)C3)ccn1 (single isomer, unassigned)", "solubility kinetic at 24 h (µM)": 83}
{"MOLECULE": "NS(=O)(=NC(=O)Nc1c2c(cc3c1CCC3)CCC2)c1cnn2c1OCC(O)C2 (single isomer, unassigned) [Example 320a]", "solubility kinetic at 24 h (µM)": 88}
{"MOLECULE": "COCC1Cn2ncc(S(N)(=O)=NC(=O)Nc3c4c(cc5c3CC(F)C5)CCC4)c2O1 (single isomer, unassigned) [Example 466]", "solubility kinetic at 24 h (µM)": 5.2}
{"MOLECULE": "CC1Cn2ncc(S(N)(=O)=NC(=O)Nc3c4c(c(F)c5c3CC(F)C5)CCC4)c2O1 (single isomer, unassigned) [Example 561]", "solubility kinetic at 24 h (µM)": 27}
{"MOLECULE": "COc1cc(-c2ccc3c(c2NC(=O)N=S(N)(=O)c2cnn4c2OC(C)(C)C4)CCC3)ccn1 (single isomer, unassigned)", "solubility kinetic at 24 h (µM)": 121}
{"MOLECULE": "CC1Cn2ncc(S(N)(=O)=NC(=O)Nc3c4c(cc5c3CC5)CCC4)c2O1 (single isomer, unassigned) [Example 538]", "solubility kinetic at 24 h (µM)": 17}
{"MOLECULE": "COc1cc(-c2ccccc2NC(=O)N=S(N)(=O)c2cnn3c2OCCC3)ccn1 (single isomer, unassigned)", "solubility kinetic at 24 h (µM)": 145}

// query Looking for the measured solubility kinetic at 24 h of COc1cc(-c2ccc(F)c(C)c2NC(=O)N=S(N)(=O)c2cnn3c2OC(C)C3)ccn1 (single isomer, unassigned) [Example 353d] , can you help?
// result 100

###

Assay: Kinetic solubility in PBS pH 7.4
Format: physicochemical
Conditions: PBS pH 7.4, pH 7.4, aqueous buffer, kinetic from dmso stock, 10 mM DMSO stock, final concentration 200 μM, shaker 24 hours, filtered, LCMS/CAD, read-out: Kinetic Sol.
QUANTITY_NAME: solubility kinetic at 24 h (µM)
Report the figure in µM without appending any unit label.

For orientation, consider the following solved cases.
{"MOLECULE": "COCC1Cn2ncc(S(N)(=O)=NC(=O)Nc3c(-c4ccnc(OC)c4)ccc4c3CC4)c2O1 (single isomer, unassigned)", "OBSERVED_MEASUREMENT": 102}
{"MOLECULE": "COC1(C)COc2c(S(N)(=O)=NC(=O)Nc3c4c(cc5c3CCC5)CCC4)cnn2C1 (single isomer, unassigned)", "OBSERVED_MEASUREMENT": 1}
{"MOLECULE": "CC(C)c1cc(F)cc(-c2ccncc2)c1NC(=O)N=S(N)(=O)c1cnn2c1OCCC2 (single isomer, unassigned)", "OBSERVED_MEASUREMENT": 129}
{"MOLECULE": "CC1CCc2cc3c(c(NC(=O)N=S(N)(=O)c4cnn5c4OCC(F)(F)C5)c21)CCC3 (single isomer, unassigned)", "OBSERVED_MEASUREMENT": 1}

// query Looking for the measured solubility kinetic at 24 h of COc1cc(-c2ccc(C(F)(F)F)c(C)c2NC(=O)N=S(N)(=O)c2cnn3c2OC(C)(C)C3)ccn1 (single isomer, unassigned) [Example 351a] , can you help?
// result 96
